system: HCT-116; assay: NCI tumour cell line growth inhibition, 48 h
Calls of active or inactive are those of the source. Rule as the data show it: active = GI50 up to about 1.1 µM and inactive = higher.
Choose one outcome from this list and give only that: active, inactive

compound	class name
N#Cc1c(-c2cccc(Cl)c2)cc(-c2ccc(Cl)cc2)nc1N	inactive
CC1(C)[C@H]2Cc3cc(-c4cc5c(cn4)[C@@H]4C[C@H]([C@@H]5[C@@H]5c6cc(-c7cc8c(cn7)[C@@H]7C[C@H](C8)C7(C)C)ncc6[C@@H]6C[C@H]5C6(C)C)C4(C)C)ncc3[C@@H]1C2	inactive
CC(C)=CCC[C@@H](C)C1=C(O)C(=O)C(C)=C(Nc2ccccc2Br)C1=O	inactive
CN1C2CCC1CN(CCOC(c1ccc(F)cc1)c1ccc(F)cc1)C2	inactive
Cc1ccc(NC(=O)C(=O)CC(=O)c2c(C)[n+]([O-])c3ccccc3[n+]2[O-])cc1	inactive

### Prompt Called result for `O=C(/C=C\c1cccc2ccccc12)c1cccc2ccccc12`
### Response inactive

### Prompt Also, `CC(=O)Nc1sc(Br)cc1S(=O)(=O)c1ccc(Cl)cc1` please.
### Response inactive
